Target: porphobilinogen synthase (PBGS) (Pieris brassicae, UniProt A0A9P0XHI4)
Sequence (A0A9P0XHI4 1-333): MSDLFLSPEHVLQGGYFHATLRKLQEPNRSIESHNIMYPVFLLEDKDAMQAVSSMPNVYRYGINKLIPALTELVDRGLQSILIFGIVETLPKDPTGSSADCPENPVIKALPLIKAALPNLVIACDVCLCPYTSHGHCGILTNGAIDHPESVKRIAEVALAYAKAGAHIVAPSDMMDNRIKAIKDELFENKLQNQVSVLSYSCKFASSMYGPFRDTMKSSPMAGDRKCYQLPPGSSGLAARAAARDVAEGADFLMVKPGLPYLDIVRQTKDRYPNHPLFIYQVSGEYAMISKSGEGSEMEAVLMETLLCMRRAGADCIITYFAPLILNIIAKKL
pIC50: −log10 of the molar value.
observationType: pIC50

• CC(=O)CC(=O)CCC(=O)O [SA, 4,6-dioxo-heptanoic acid] = 5.35
